experiment: Conductivity measurements (hydrolytic stability); type: physicochemical; conditions: DMSO/H2O 90/10, solutions about 10^−3 M, room temperature
Reported Property: conductivity

COC(Cn1c(Cl)c(Cl)n(C)[c]1=[Ru]([Cl])[Cl])c1ccccc1.Cc1ccc(C(C)C)cc1 (stereo not drawn) : close to zero
COC(Cn1ccn(C)[c]1=[Ru]([Cl])[Cl])c1ccccc1.Cc1ccc(C(C)C)cc1 (stereo not drawn) : close to zero
COC(Cn1ccn(C)[c]1=[Ru]([I])[I])c1ccccc1.Cc1ccc(C(C)C)cc1 (stereo not drawn) : 13.1–44.2 μS cm^−1
COC(Cn1ccn(C)[c]1=[Ru]1[O]C(=O)C(=O)[O]1)c1ccccc1.Cc1ccc(C(C)C)cc1 (stereo not drawn) : close to zero
CN1C=CN2CC(c3ccccc3)[O+](C)[Ru]([Cl])=[C]12.Cc1ccc(C(C)C)cc1.F[P-](F)(F)(F)(F)F (stereo not drawn) : 6.3–25.6 μS cm^−1

Next, consider the following compound.
**Query** What value of conductivity has been recorded for this entry: COC(Cn1[c](=[Ru]([Cl])[Cl])n(C)c2ccccc21)c1ccccc1.Cc1ccc(C(C)C)cc1 (stereo not drawn)
**Result** close to zero

###

test: DPPH radical scavenging assay; conditions: 30 min, room temperature, 517 nm
Reported Property: pIC50
On this scale, pIC50 is minus log10 of a concentration expressed in M (mol/L).

Take a look at these entries with their results.
COC(Cn1[c](=[Ru]([Cl])[Cl])n(C)c2ccccc21)c1ccccc1.Cc1ccc(C(C)C)cc1 (stereo not drawn) : 3.79
CN1C=CN2CC(c3ccccc3)[O+](C)[Ru]([Cl])=[C]12.Cc1ccc(C(C)C)cc1.F[P-](F)(F)(F)(F)F (stereo not drawn) : 4.35

Next, consider the following compound.
**Query** What value of pIC50 has been recorded for this entry: COC(Cn1ccn(C)[c]1=[Ru]1[O]C(=O)C(=O)[O]1)c1ccccc1.Cc1ccc(C(C)C)cc1 (stereo not drawn)
**Result** 3.29

###

System: MCF-10A cells
Test: MTT assay, non-tumoral MCF-10A cells
Type: cell-based, human
Conditions: 72 h exposure
Procedure: Additionally, we investigated the selectivity of all the synthesized Ru-NHC complexes on the cancer cells by studying their capability to interfere with the growth of two non-tumoral cells, namely the MCF-10A and BALB/3T3 cells. […] MTT assay (Sigma Aldrich (St. Louis, MO, USA)) was used for the in vitro anticancer activity evaluation, as previously reported. […] The IC50 values were calculated from the percent (%) of control using GraphPad Prism 9 (GraphPad Software, La Jolla, CA, USA).
Reported Property: IC50 (µM)
Answer with a number only, understood to be in µM.

Take a look at these entries with their results.
N.N.[Cl][Pt][Cl] [Cisplatin, reference compound] : 80.2
COC(Cn1[c](=[Ru]([Cl])[Cl])n(C)c2ccccc21)c1ccccc1.Cc1ccc(C(C)C)cc1 (stereo not shown) [RANHC-VI] : 90.7

Next, consider the following compound.
**Query** What value of IC50 has been recorded for this entry: COC(Cn1c(Cl)c(Cl)n(C)[c]1=[Ru]([Cl])[Cl])c1ccccc1.Cc1ccc(C(C)C)cc1 (stereo not shown) [RANHC-V]
**Result** 79.5
